# System: HepG2
# MEASUREMENT_PROTOCOL: Cytotoxicity against human HepG2 cells assessed as reduction in cell viability incubated for 24 hrs in presence of glucose by MTT assay
# Type: functional, cell-based
# RUN_CONDITIONS: HepG2, 24 h
pIC50: −log10 of the molar value.
PARAMETER: pIC50

Endpoint output: pIC50 of Brc1cc(Br)cc([C@H]2C[C@@H](CN3CCCC3)N2Cc2ccccc2Br)c1 (racemic) . Value? < 4.00

###

Kindly state logP for each of the entries shown.
# MEASUREMENT_PROTOCOL: Lipophilicity, log P of the compound
# Type: physicochemical
# RUN_CONDITIONS: octanol/water
Number only, please.

Endpoint output: logP of CN(C)C[C@@H]1C[C@H](c2cc(Br)cc(Br)c2)N1Cc1ccccc1Br (racemic) . Value? 5.97

Now give it for COCCNC[C@@H]1C[C@H](c2ccc(OC(F)(F)F)cc2)N1Cc1ccccc1OC(F)(F)F (racemic) too. 6.1

Now give it for C#CCNC[C@@H]1C[C@H](c2cc(Br)cc(Br)c2)N1Cc1ccccc1Br (racemic) too. 5.82

Now give it for Clc1cc(Cl)cc([C@H]2C[C@@H](CN3CCCC3)N2Cc2ccccc2Br)c1 (racemic) too. 6.05
